assay: Pharmacokinetic analysis of oral gavage administration in female rats; conditions: female, SD, rat, brain/plasma, po, 12 mg/kg
Assay metric: Kp at 8 h
// no unit string in output, number only

Query: Kp at 8 h; subject: CC(=O)[C@H]1CC[C@H]2[C@@H]3CC[C@H]4C[C@H](O[N+](=O)[O-])CC[C@]4(C)[C@H]3CC[C@]12C 2.95

====

assay: Pharmacokinetic analysis of oral administration to male rats; format: in vivo; settings: male, SD, rat, plasma, po, 12 mg/kg, oral gavage 12 mg/kg, 24 h, mean of 7 rats, read-out: Blood drug concentration, Mean value
Assay metric: concentration at 24 h (ng/mL)
Your answer should be a plain number; it is taken to be in ng/mL.

CC(=O)[C@H]1CC[C@H]2[C@@H]3CC[C@H]4C[C@H](O)CC[C@]4(C)[C@H]3CC[C@]12C [Allopregnanolone, 5α-pregnan-3α-ol-20-one, reference compound] ... 0

Shifting focus to the molecule that follows.
Query: concentration at 24 h; subject: CC(=O)[C@H]1CC[C@H]2[C@@H]3CC[C@H]4C[C@H](O[N+](=O)[O-])CC[C@]4(C)[C@H]3CC[C@]12C [Compound 1] 48.5

====

assay: Pharmacokinetic analysis of oral administration to male rats; format: in vivo; conditions: male, SD, rat, plasma, po, 12 mg/kg, oral gavage 12 mg/kg, 18 h, individual rats 1-7, read-out: Blood drug concentration
Assay metric: concentration at 18 h (ng/mL)
Your answer should be a plain number; it is taken to be in ng/mL.

Query: concentration at 18 h; subject: CC(=O)[C@H]1CC[C@H]2[C@@H]3CC[C@H]4C[C@H](O)CC[C@]4(C)[C@H]3CC[C@]12C [Allopregnanolone, 5α-pregnan-3α-ol-20-one, reference compound] 0

====

assay: Pharmacokinetic analysis of tail vein administration in female rats; conditions: female, SD, rat, brain, intravenous, 3 mg/kg
Assay metric: concentration at 8 h (ng/g)
Your answer should be a plain number; it is taken to be in ng/g.

Query: concentration at 8 h; subject: CC(=O)[C@H]1CC[C@H]2[C@@H]3CC[C@H]4C[C@H](O[N+](=O)[O-])CC[C@]4(C)[C@H]3CC[C@]12C 209

====

assay: In vitro phase I metabolic stability in male SD rat hepatic microsomes; format: in vitro ADME; settings: liver microsomes; male SD rat hepatic microsomes, NADPH system, 37° C.; read-out: T1/2 (in vitro metabolic half-life)
Assay metric: half-life (min)
Your answer should be a plain number; it is taken to be in min.

CC(=O)[C@H]1CC[C@H]2[C@@H]3CC[C@H]4C[C@H](O)CC[C@]4(C)[C@H]3CC[C@]12C [Allopregnanolone, 5α-pregnan-3α-ol-20-one, reference compound] ... 2.17

Shifting focus to the molecule that follows.
Query: half-life; subject: CC(=O)[C@H]1CC[C@H]2[C@@H]3CC[C@H]4C[C@H](O[N+](=O)[O-])CC[C@]4(C)[C@H]3CC[C@]12C 93.5

====

assay: Pharmacokinetic analysis of tail vein administration in mice; conditions: female, ICR, mouse, brain, intravenous, 5 mg/kg
// concentration at 5 min lookup, one value per entry
Your answer should be a plain number; it is taken to be in ng/g.

CC(=O)[C@H]1CC[C@H]2[C@@H]3CC[C@H]4C[C@H](O[N+](=O)[O-])CC[C@]4(C)[C@H]3CC[C@]12C ... 1140

Shifting focus to the compound that follows.
Query: concentration at 5 min; subject: CC(=O)[C@H]1CC[C@H]2[C@@H]3CC[C@H]4C[C@H](O)CC[C@]4(C)[C@H]3CC[C@]12C [Allopregnanolone, 5α-pregnan-3α-ol-20-one, reference compound] 1070

====

assay: Pharmacokinetic analysis of tail vein administration in female rats; settings: female, SD, rat, plasma, iv, 3 mg/kg
Assay metric: half-life (min)
Your answer should be a plain number; it is taken to be in min.

CC(=O)[C@H]1CC[C@H]2[C@@H]3CC[C@H]4C[C@H](O[N+](=O)[O-])CC[C@]4(C)[C@H]3CC[C@]12C [Compound 1] ... 57.6

Shifting focus to the compound that follows.
Query: half-life; subject: CC(=O)[C@H]1CC[C@H]2[C@@H]3CC[C@H]4C[C@H](O)CC[C@]4(C)[C@H]3CC[C@]12C [Allopregnanolone, 5α-pregnan-3α-ol-20-one, reference compound] 52.2

====

assay: Pharmacokinetic analysis of tail vein administration in female rats; details: female, SD, rat, liver, iv, 3 mg/kg
Assay metric: concentration at 8 h
Write the numeric value and append its unit.

Query: concentration at 8 h; subject: CC(=O)[C@H]1CC[C@H]2[C@@H]3CC[C@H]4C[C@H](O[N+](=O)[O-])CC[C@]4(C)[C@H]3CC[C@]12C 193 ng/g

====

// concentration at 2 h lookup, one value per entry
assay: Pharmacokinetic analysis of oral administration to male rats; type: in vivo; details: male, SD, rat, plasma, po, 12 mg/kg, oral gavage 12 mg/kg, 2 h, mean of 7 rats, read-out: Blood drug concentration, Mean value
Your answer should be a plain number; it is taken to be in ng/mL.

CC(=O)[C@H]1CC[C@H]2[C@@H]3CC[C@H]4C[C@H](O[N+](=O)[O-])CC[C@]4(C)[C@H]3CC[C@]12C [Compound 1] ... 119

Shifting focus to the compound that follows.
Query: concentration at 2 h; subject: CC(=O)[C@H]1CC[C@H]2[C@@H]3CC[C@H]4C[C@H](O)CC[C@]4(C)[C@H]3CC[C@]12C [Allopregnanolone, 5α-pregnan-3α-ol-20-one, reference compound] 0

====

test: Pharmacokinetic analysis of oral administration to male rats; type: in vivo; conditions: male, SD, rat, plasma, po, 12 mg/kg, oral gavage 12 mg/kg, 0.5 h, individual rats 1-7, read-out: Blood drug concentration
Assay metric: concentration at 0.5 h (ng/mL)
Your answer should be a plain number; it is taken to be in ng/mL.

Query: concentration at 0.5 h; subject: CC(=O)[C@H]1CC[C@H]2[C@@H]3CC[C@H]4C[C@H](O)CC[C@]4(C)[C@H]3CC[C@]12C [Allopregnanolone, 5α-pregnan-3α-ol-20-one, reference compound] 0

====

// concentration at 1 h lookup, one value per entry
assay: Pharmacokinetic analysis of tail vein administration in mice; conditions: female, ICR, mouse, brain, intravenous, 5 mg/kg
Your answer should be a plain number; it is taken to be in ng/g.

CC(=O)[C@H]1CC[C@H]2[C@@H]3CC[C@H]4C[C@H](O)CC[C@]4(C)[C@H]3CC[C@]12C [Allopregnanolone, 5α-pregnan-3α-ol-20-one, reference compound] ... 47.3

Shifting focus to the compound that follows.
Query: concentration at 1 h; subject: CC(=O)[C@H]1CC[C@H]2[C@@H]3CC[C@H]4C[C@H](O[N+](=O)[O-])CC[C@]4(C)[C@H]3CC[C@]12C [Compound 1] 652

====

Test: Pharmacokinetic analysis of oral administration to male rats
Type: in vivo
Conditions: male, SD, rat, plasma, po, 12 mg/kg, oral gavage 12 mg/kg, 6 h, mean of 7 rats, read-out: Blood drug concentration, Mean value
Text: Male SD rats (body weight: 230 g to 250 g) were purchased from BEIJING HFK BIOSCIENCE CO., LTD.
Assay metric: concentration at 6 h (µg/mL)
Your answer should be a plain number; it is taken to be in µg/mL.

CC(=O)[C@H]1CC[C@H]2[C@@H]3CC[C@H]4C[C@H](O)CC[C@]4(C)[C@H]3CC[C@]12C [Allopregnanolone, 5α-pregnan-3α-ol-20-one, reference compound] ... 0

Shifting focus to the molecule that follows.
Query: concentration at 6 h; subject: CC(=O)[C@H]1CC[C@H]2[C@@H]3CC[C@H]4C[C@H](O[N+](=O)[O-])CC[C@]4(C)[C@H]3CC[C@]12C 0.333

====

assay: Pharmacokinetic analysis of oral administration to male rats; type: in vivo; conditions: male, SD, rat, plasma, po, 12 mg/kg, oral gavage 12 mg/kg, 12 h, mean of 7 rats, read-out: Blood drug concentration, Mean value
// concentration at 12 h lookup, one value per entry
Your answer should be a plain number; it is taken to be in ng/mL.

CC(=O)[C@H]1CC[C@H]2[C@@H]3CC[C@H]4C[C@H](O[N+](=O)[O-])CC[C@]4(C)[C@H]3CC[C@]12C [Compound 1] ... 469

Shifting focus to the compound that follows.
Query: concentration at 12 h; subject: CC(=O)[C@H]1CC[C@H]2[C@@H]3CC[C@H]4C[C@H](O)CC[C@]4(C)[C@H]3CC[C@]12C [Allopregnanolone, 5α-pregnan-3α-ol-20-one, reference compound] 0

====

test: Pharmacokinetic analysis of oral administration to male rats; format: in vivo; settings: male, SD, rat, plasma, po, 12 mg/kg, oral gavage 12 mg/kg, 5 h, individual rats 1-7, read-out: Blood drug concentration
Assay metric: concentration at 5 h (ng/mL)
Your answer should be a plain number; it is taken to be in ng/mL.

Query: concentration at 5 h; subject: CC(=O)[C@H]1CC[C@H]2[C@@H]3CC[C@H]4C[C@H](O)CC[C@]4(C)[C@H]3CC[C@]12C [Allopregnanolone, 5α-pregnan-3α-ol-20-one, reference compound] 0
